- measured target: Histone deacetylase 1 (Homo sapiens, UniProt Q13547)
- Sequence (Q13547 whole entry): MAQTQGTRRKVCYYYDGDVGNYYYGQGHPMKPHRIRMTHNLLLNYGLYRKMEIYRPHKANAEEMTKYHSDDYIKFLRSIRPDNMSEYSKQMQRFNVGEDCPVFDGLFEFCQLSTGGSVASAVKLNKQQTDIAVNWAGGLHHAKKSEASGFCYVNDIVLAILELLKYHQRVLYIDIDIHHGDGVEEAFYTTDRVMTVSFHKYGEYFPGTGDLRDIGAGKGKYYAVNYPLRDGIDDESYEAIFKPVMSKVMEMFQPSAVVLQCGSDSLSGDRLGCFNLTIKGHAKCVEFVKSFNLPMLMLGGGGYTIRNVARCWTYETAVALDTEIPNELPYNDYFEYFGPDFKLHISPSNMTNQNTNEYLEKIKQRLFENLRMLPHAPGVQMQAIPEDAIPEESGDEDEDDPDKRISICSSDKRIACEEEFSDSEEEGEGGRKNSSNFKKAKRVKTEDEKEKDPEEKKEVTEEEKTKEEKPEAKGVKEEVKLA
- test method notes: Inhibition of full length C-terminal His-tagged HDAC1 (unknown origin) using (Ac-Leu-Gly-Lys(Ac)-AMC as substrate preincubated with enzyme for 2 hrs followed by substrate addition and measured after 30 mins by fluorescence based assay
measured quantity: IC50 (nM)

- CCCNNC(=O)c1ccc(CNC(=O)/C=C/c2ccccc2)cc1: 4.89

====

- measured target: UniProt Q92769
- Sequence (Q92769 whole entry): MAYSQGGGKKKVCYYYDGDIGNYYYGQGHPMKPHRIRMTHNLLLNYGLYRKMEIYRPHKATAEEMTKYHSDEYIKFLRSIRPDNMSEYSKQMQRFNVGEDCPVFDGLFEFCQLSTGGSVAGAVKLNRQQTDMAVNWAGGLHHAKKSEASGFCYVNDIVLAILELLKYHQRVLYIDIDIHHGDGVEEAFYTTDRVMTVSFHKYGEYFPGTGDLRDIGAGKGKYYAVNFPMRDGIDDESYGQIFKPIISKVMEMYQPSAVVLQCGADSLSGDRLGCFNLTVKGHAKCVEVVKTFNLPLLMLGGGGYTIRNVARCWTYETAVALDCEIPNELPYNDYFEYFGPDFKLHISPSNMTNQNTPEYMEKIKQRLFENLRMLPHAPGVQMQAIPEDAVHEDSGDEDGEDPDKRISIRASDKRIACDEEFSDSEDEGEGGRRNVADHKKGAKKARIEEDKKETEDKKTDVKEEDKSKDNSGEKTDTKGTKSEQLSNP
- test method notes: Inhibition of full length C-terminal FLAG-tagged HDAC2 (unknown origin) using (Ac-Leu-Gly-Lys(Ac)-AMC as substrate preincubated with enzyme for 30 mins followed by substrate addition and measured after 30 mins by fluorescence based assay
measured quantity: IC50 (nM)

- CCCNNC(=O)c1ccc(CNC(=O)/C=C/c2ccccc2)cc1: 48

Where do these numbers come from? They come from ChEMBL document CHEMBL5126568.
